Values were extracted from patent US8178506B2.

Each entry below carries its reported % cells in cell cycle phase S.
# System: T47D cells
# Assay explanation: Cell cycle assay in T47D cells
# Format: cell-based, human
# Measurement conditions: 150 nM, 48 hours, relative to untreated control
In the oligonucleotide strings, read from the 5' end, every base follows the letter of its sugar. An asterisk marks phosphorothioate; unmarked linkages are phosphodiester. Other units and linkages are bracketed, terminal groups are in braces. A string of capitals states the bases alone. e = 2'-O-(2-methoxyethyl) (MOE); [5mC] = 5-methylcytosine; d = 2'-deoxy (DNA)
Recorded endpoint: % cells in cell cycle phase S (%)

1. 25691 (antisense eG*e[5mC]*e[5mC]*eA*eA*dG*dG*d[5mC]*dG*dT*dG*dA*d[5mC]*dA*dT*eG*eA*eT*eA*eT) [compound 25691]: 104
2. 327905 (antisense e[5mC]*eA*eG*eA*e[5mC]*eT*e[5mC]*e[5mC]*eG*eG*eT*eG*eG*eA*eA*eT*eG*eA*eA*eG*eG*eA) [compound 327905]: 101
3. 328744 (antisense e[5mC]*eG*eG*eA*eT*d[5mC]*d[5mC]*dT*dG*dT*dT*dA*d[5mC]*d[5mC]*dT*e[5mC]*eA*e[5mC]*e[5mC]*eA) [compound 328744]: 87
4. 328759 (antisense eG*eA*eG*eG*eG*dA*dT*dT*dG*dT*dA*dT*dG*dA*dA*e[5mC]*eA*eT*e[5mC]*eT) [compound 328759]: 87
5. 327902 (antisense eG*eG*e[5mC]*eT*eG*eT*e[5mC]*eA*eA*eT*eT*e[5mC]*eA*eT*eA*eG*eG*eT*e[5mC]*eA*eG) [compound 327902]: 120
6. 328403 (antisense eA*eG*eG*e[5mC]*e[5mC]*dT*dA*dT*dT*d[5mC]*d[5mC]*dT*dG*dT*dA*eG*e[5mC]*eA*eA*eA) [compound 328403]: 112
7. 328687 (eG*e[5mC]*eT*eT*e[5mC]*d[5mC]*d[5mC]*dA*dG*d[5mC]*dG*dG*d[5mC]*d[5mC]*dT*eA*eT*eA*eG*eT; antisense) [compound 328687]: 92
8. 25690 (antisense eA*eT*e[5mC]*e[5mC]*e[5mC]*dT*dT*dT*d[5mC]*dT*dT*d[5mC]*d[5mC]*dG*d[5mC]*eA*eT*eG*eT*eG) [compound 25690]: 80

* * *

# System: HuVECs
# Assay explanation: Endothelial tube formation assay in HuVECs
# Measurement conditions: 75 nM oligomeric compound, Table 57
In the oligonucleotide strings, read from the 5' end, every base follows the letter of its sugar. An asterisk marks phosphorothioate; unmarked linkages are phosphodiester. Other units and linkages are bracketed, terminal groups are in braces. A string of capitals states the bases alone. e = 2'-O-(2-methoxyethyl) (MOE); [5mC] = 5-methylcytosine
Recorded endpoint: % Activity Relative to UTC (tube formation) (%)

1. 327899 (antisense e[5mC]*eA*eG*eT*eG*eA*eA*eT*eT*e[5mC]*eT*eA*e[5mC]*e[5mC]*eA*eG*eT*eG*e[5mC]*e[5mC]*eA*eT*eA) [compound 327899]: 34.5
2. 327914 (antisense eG*e[5mC]*e[5mC]*e[5mC]*eT*eT*eT*eT*eA*eA*e[5mC]*eA*eT*eT*eG*e[5mC]*eA*e[5mC]*eT*eG) [compound 327914]: 82.8
3. 327910 (antisense eT*eG*eA*eT*eA*eG*e[5mC]*e[5mC]*e[5mC]*eT*eG*eT*eA*e[5mC]*eA*eA*eT*eG*e[5mC]*eT*eG*e[5mC]*eT) [compound 327910]: 55.2
4. 327908 (antisense e[5mC]*eA*eA*eT*eG*e[5mC]*eA*eA*e[5mC]*eT*eA*e[5mC]*eA*eA*eT*eG*e[5mC]*eA*e[5mC]) [compound 327908]: 103.5
